target: LARP1 La-Module (Homo sapiens, UniProt Q6PKG0-3 310-540); assay: EMSA
readout.label: binding result

>>> endpoint_value("AAGCGGCUGCCGAAG (ssRNA) [RPL13A 5'UTR delTOP]")
"no binding"
>>> endpoint_value("CCUUUUCCAAGCGGCUGCCGAAG (ssRNA) [RPL13A 5'UTR]")
"binds"
>>> endpoint_value("GUGGCGCCUCGGAGGCGUUCAGCUGCUUCAAG (ssRNA) [RPS6 5'UTR delTOP]")
"no binding"
>>> endpoint_value("CCUUCUCCCCGGCGGUUAGUGCUGAGAGUGCGGAGUGUGUG (ssRNA) [PABPC1 42-mer]")
"no binding"
>>> endpoint_value("CCUCUUUUCCGUGGCGCCUCGGAGGCGUUCAGCUGCUUCAAG (ssRNA) [RPS6 5'UTR]")
"binds"
>>> endpoint_value("CUCUCUUCCACAGGAGGCCUACACGCCGCCGCUUGUGCUGCAGCC (ssRNA) [RPS18 5'UTR]")
"no binding"

Turning now to a further record.
Look up binding result: AAGAUUUUUUGAGUAACAAAU (ssRNA) [RPS6 3'UTR] no binding
